Data credit: patent US20250101062A1

- Tested on: S. aureus USA300 LAC
- method: microbe, parasite or virus in culture
- Type: cell-based, Staphylococcus aureus
- applied-conditions: MHB 12.5%
Where no end group is shown, it is not given here.

| substance | system-name | Antimicrobial activity (MIC) |
| --- | --- | --- |
| KRIVQRIK-NH2 [W538] | S. aureus USA300 LAC | > 64 µM |
| FKRIVQRIKDFLRNLV [FK-16, reference compound] | S. aureus USA300 LAC | active |
| KRIVQRIKDFLR-NH2 (C-terminus assumed) [KR-12] | S. aureus USA300 LAC | active |
| RIKDFLRNLV-NH2 (C-terminus assumed) [RIK-10] | S. aureus USA300 LAC | active |

====

- method: Cytotoxicity assay (MTS)
- Format: cell-based
- applied-conditions: human, HepG2 cells, read-out: LC50
Where no end group is shown, it is not given here.
Measured CC50 at 24 h of individual entries

| substance | relation | CC50 at 24 h (µM) |
| --- | --- | --- |
| RWKRFLRNWV-NH2 [RIK-10+] | = | 100 |
| LWGRFFRKWK-NH2 [LL-10+] | > | 100 |
| RWWKKWWGK-NH2 [RK-9+] | > | 100 |
| KRWWQWWK-NH2 [KR-8+] | = | 12.5 |

====

- Tested on: P. aeruginosa E416-17
- Type: cell-based, Pseudomonas aeruginosa
Where no end group is shown, it is not given here.

| substance | MIC P. aeruginosa E416-17 [µM] |
| --- | --- |
| LWGRFFRKWK-NH2 [LL-10+] | 8 |
| VWNRLFRKWR-NH2 [RetroRIK-10++] | 16 |
| KWKRFFRGWL-NH2 [RetroLL-10+] | 4 |
| RWKRFLRNWV-NH2 [RIK-10+] | 4 |

====

- Test system: S. aureus USA300 LAC
- method: microbe, parasite or virus in culture
- Assay type: cell-based, Staphylococcus aureus
- applied-conditions: Staphylococcus aureus, MRSA / USA300, pH 7.2, MRSA in MHB, pH 7.2; read-out: Antimicrobial activity (MIC)

| input-smiles | units | MIC |
| --- | --- | --- |
| NC[C@H]1O[C@H](O[C@H]2[C@H](O)[C@@H](O[C@H]3O[C@H](CO)[C@@H](O)[C@H](N)[C@H]3O)[C@H](N)C[C@@H]2N)[C@H](N)C[C@@H]1O | µM | 2 |
| CCCCCCCCCC(=O)N[C@@H](Cc1c[nH]c2ccccc12)C(=O)N[C@H](CC(N)=O)C(=O)N[C@@H](CC(=O)O)C(=O)N[C@@H]1C(=O)NCC(=O)N[C@@H](CCCN)C(=O)N[C@@H](CC(=O)O)C(=O)N[C@H](C)C(=O)N[C@@H](CC(=O)O)C(=O)NCC(=O)N[C@H](CO)C(=O)N[C@@H]([C@H](C)CC(=O)O)C(=O)N[C@@H](CC(=O)c2ccccc2N)C(=O)O[C@@H]1C | µM | 1 |
| NCC[C@H](O)C(=O)N[C@@H]1C[C@H](N)[C@@H](O[C@H]2O[C@H](CN)[C@@H](O)[C@H](O)[C@H]2O)[C@H](O)[C@H]1O[C@H]1O[C@H](CO)[C@@H](O)[C@H](N)[C@H]1O | µM | 8 |
